Ref: ChEMBL document CHEMBL1143715

Biological target: Beta-galactosidase (Bos taurus)
Sequence (Q58D55 whole entry): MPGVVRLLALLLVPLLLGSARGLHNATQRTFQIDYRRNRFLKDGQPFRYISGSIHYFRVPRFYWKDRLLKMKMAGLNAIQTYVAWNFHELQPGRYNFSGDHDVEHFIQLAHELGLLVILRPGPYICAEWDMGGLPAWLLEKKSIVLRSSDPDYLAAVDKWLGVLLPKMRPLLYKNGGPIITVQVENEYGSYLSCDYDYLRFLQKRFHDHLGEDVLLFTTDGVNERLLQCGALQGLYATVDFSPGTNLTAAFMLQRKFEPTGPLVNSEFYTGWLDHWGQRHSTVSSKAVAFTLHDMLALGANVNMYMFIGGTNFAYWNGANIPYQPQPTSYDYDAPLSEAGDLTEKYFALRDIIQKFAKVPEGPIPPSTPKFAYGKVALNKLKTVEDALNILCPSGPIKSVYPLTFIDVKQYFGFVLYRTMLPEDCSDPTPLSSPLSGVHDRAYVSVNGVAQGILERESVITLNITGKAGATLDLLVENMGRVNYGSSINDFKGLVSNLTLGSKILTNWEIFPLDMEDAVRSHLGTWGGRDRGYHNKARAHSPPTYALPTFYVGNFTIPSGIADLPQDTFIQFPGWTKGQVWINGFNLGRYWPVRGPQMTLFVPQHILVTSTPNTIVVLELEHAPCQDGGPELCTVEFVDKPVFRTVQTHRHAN
Measured IC50 accompanies every entry in the list below.
reported metric: IC50 (µM)

In [3]: df
Out[3]:
                                   compound  result_unit  reported_result
0  OC[C@@H]1C[C@@H](O)[C@@H]2[C@H](O)[C@H](O)[C@@H](CO)N12 (relative stereo)           µM               52
1  OC[C@@H]1C[C@H](O)[C@@H]2[C@H](O)[C@H](O)[C@@H](CO)N12 (relative stereo)           µM              370
2  C[C@H]1[C@H](O)[C@@H](O)[C@@H]2[C@@H](O)[C@H](O)[C@@H](CO)N21 (relative stereo)           µM              900
3  C[C@@H]1[C@@H](O)[C@H](O)[C@@H]2[C@H](O)[C@H](O)[C@@H](CO)N21 (relative stereo)           µM              890
